# subject.of.test: T1, cynomolgus soluble TREM2 (sTREM2) (cynomolgus)
# T1 construct: also called sTREM2 in Cyno CSF
# test.summary: MSD assay: sTREM2 captured from healthy cynomolgus CSF, sulfo-tagged antibody titrated
This section presents binders with their documented EC50 values.

binder	measurement.unit	EC50
CL0020188-4 (antibody, V domains shown, Humanized variant of CL0020188 (hVH NG/3 m, hVL TG/graft); also called Clone CL0020188-4) VH: EVQLVESGGGLVQPGGSLRLSCAGSGFTFTDFYMSWVRQAPGKGPEWLSVIRNKANGYTAGYNPSVKGRFTISRDNSKNTLYLQMNSLRAEDTAVYYCARLTYGFDYWGQGTLVTVSS VL: DIVMTQTPLSLPVTPGEPASISCQSSKSLLHSTGKTYLNWYLQKPGQSPQLLIYWMSTRASGVPDRFSGSGSGTDFTLKISRVEAEDVGVYYCQQFLEYPFTFGQGTKVEIK	nM	0.28
CL0020123-5 (antibody, V domains shown, Humanized variant of CL0020123 (hVH QGES/2 m, Vk graft); also called Clone CL0020123-5) VH: QVQLVQSGAEVKKPGASVKVSCKASGFSIEDFYIHWVRQAPGQGLEWMGWIDPEQGESKYAPKFQGRATITADTSTSTAYMELSSLRSEDTAVYYCHADHGNYGSTMDYWGQGTLVTVSS VL: DIQMTQSPSSLSASVGDRVTITCHASQHINVWLSWYQQKPGKAPKLLIYKASNLHTGVPSRFSGSGSGTDFTLTISSLQPEDFATYYCQQGQTYPRTFGQGTKVEIK	nM	49.4
Reference antibody #1 (antibody, V domains shown) VH: EVQLVQSGAEVKKPGESLKISCKGSGHSFTNYWIAWVRQMPGKGLEWMGIIYPGDSDTRYSPSFQGQVTISADKSISTAYLQWSSLKASDTAVYFCARQRTFYYDSSGYFDYWGQGTLVTVSS VL: DIQMTQSPSSVSASVGDRVTITCRASQGISNWLAWYQQKPGKAPKLLIYAASSLQVGVPLRFSGSGSGTDFTLTISSLQPEDFATYYCQQADSFPRNFGQGTKLEIK	nM	81.6
Reference antibody #2 (antibody, V domains shown) VH: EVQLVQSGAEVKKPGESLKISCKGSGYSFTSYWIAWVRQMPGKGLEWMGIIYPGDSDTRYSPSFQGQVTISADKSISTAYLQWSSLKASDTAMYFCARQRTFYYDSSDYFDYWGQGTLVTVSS VL: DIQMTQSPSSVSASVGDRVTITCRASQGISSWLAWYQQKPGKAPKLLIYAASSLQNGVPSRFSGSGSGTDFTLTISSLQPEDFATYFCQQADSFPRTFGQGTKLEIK	nM	6.5
